These entries and their values trace back to patent US7998978B2.

- Assay target: JNK1α1 (Homo sapiens, UniProt P45983)
- Construct: catalytic domain containing amino acids 1-364 and N-terminal hexahistidine tag; hexahistidine (His6) (N); made in house; host or cells: E. coli BL21 (DE3)
- Sequence (P45983 1-364): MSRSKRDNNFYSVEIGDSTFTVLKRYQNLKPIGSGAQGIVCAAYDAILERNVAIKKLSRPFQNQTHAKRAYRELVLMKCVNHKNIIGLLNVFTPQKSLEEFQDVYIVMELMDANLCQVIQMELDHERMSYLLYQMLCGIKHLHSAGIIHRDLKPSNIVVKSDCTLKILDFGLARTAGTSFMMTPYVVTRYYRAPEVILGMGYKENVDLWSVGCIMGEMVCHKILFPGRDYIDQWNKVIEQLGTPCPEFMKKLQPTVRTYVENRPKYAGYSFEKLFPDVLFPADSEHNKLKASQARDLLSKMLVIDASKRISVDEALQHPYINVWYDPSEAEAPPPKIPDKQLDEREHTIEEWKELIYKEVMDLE
- Procedure text: Coupled spectrophotometric (PK/LDH) JNK1α1 assay: % inhibition and Ki determination
- Type: biochemical
- Particulars: @1 uM; read-out: % Inhibition JNK-1
What inhibition at 1 µM was measured for each of the following?

Consider the reported inhibition at 1 µM for these compounds:
O=C(NCc1ccccn1)c1cccc2cnc(N[C@H]3CC[C@H](O)CC3)nc12 [Example 468] :: 15%
O[C@H]1CC[C@H](Nc2ncc3cccc(OCCN4CCCCC4)c3n2)CC1 [Example 255] :: 12%
O=C(N[C@H](CO)c1ccccc1)c1cccc2cnc(N[C@H]3CC[C@H](O)CC3)nc12 [Example 470] :: 27%
CCN1CC(CNC(=O)c2cccc3cnc(N[C@H]4CC[C@H](O)CC4)nc23)OCC1=O (some centres unmarked) [Example 529] :: 16%

List the reported inhibition at 1 µM of each compound below.
1. CC(NC(=O)c1cccc2cnc(N[C@H]3CC[C@H](O)CC3)nc12)c1ccncn1 (some centres unmarked) [Example 492]
2. CCN1CC(CNC(=O)c2cccc3cnc(N[C@H]4CC[C@H](O)CC4)nc23)CC1=O (some centres unmarked) [Example 508]
3. CC(C)Nc1ncc2ccc(C(=O)N[C@@H](C)CO)cc2n1 [Example 434]
4. O[C@H]1CC[C@H](Nc2ncc3ccc(OC(CN4CCOCC4)c4ccccc4)cc3n2)CC1 (some centres unmarked) [Example 298]
5. O=C(NCCN1CCNC1=O)c1cccc2cnc(N[C@H]3CC[C@H](O)CC3)nc12 [Example 476]
6. O=C(NC1(CO)CCCC1)c1ccc2cnc(NC3CCC3)nc2c1 [Example 422]
7. Cc1noc(CNC(=O)c2cccc3cnc(N[C@H]4CC[C@H](O)CC4)nc23)n1 [Example 530]
8. O[C@H]1CC[C@H](Nc2ncc3ccc(OCc4nc5ccccc5[nH]4)cc3n2)CC1 [Example 288]

## Result
1. 12%
2. 21%
3. 15%
4. 18%
5. 10%
6. 13%
7. 26%
8. 39%

List the reported inhibition at 1 µM of each compound below.
1. O=C(NCCn1ccnc1)c1cccc2cnc(N[C@H]3CC[C@H](O)CC3)nc12 [Example 491]
2. Cc1cccc(CC(C)NC(=O)c2cccc3cnc(N[C@H]4CC[C@H](O)CC4)nc23)n1 (some centres unmarked) [Example 475]
3. O=C(NCCO)c1ccc2cnc(NC3CCC3)nc2c1 [Example 430]
4. CC(=O)N1CCC(NC(=O)c2cccc3cnc(N[C@H]4CC[C@H](O)CC4)nc23)CC1 [Example 519]
5. O=C(N[C@@H]1COC[C@H]1O)c1ccc2cnc(NC3CCCC3)nc2c1 [Example 435]

## Result
1: 13%; 2: 11%; 3: 11%; 4: 9%; 5: 22%
